Cited source: ChEMBL document CHEMBL3885861

- Organism: Rattus norvegicus
- Test Protocol: Open TG-GATES - Regimen: Daily Repeat
- Format: toxicity, organism-based, Sprague-Dawley
- Parameters: regimen Daily Repeat, gender Male, age 6 weeks
- Applied Conditions: in vivo, po, 0 mg/kg, […], tissue Blood, route gavage, dose level Control, time 14 day
Below, each entry is listed with its recorded Lym.

CC[C@H]1[C@@H]2C[C@H]3[C@@H]4N(C)c5ccccc5[C@]45C[C@@H]([C@@H]2[C@H]5O)N3[C@@H]1O | 84.6%
CC1=C(CC(=O)O)c2cc(F)ccc2/C1=C\c1ccc([S+](C)[O-])cc1 (stereo not given) | 76.8%

Sample O=NN(CCCl)C(=O)NC1CCCCC1 ; Lym observed: 80.8%

Sample CN(C)C(=N)N=C(N)N ; Lym observed: 77.8%

Sample ClC(Cl)(Cl)Cl [CARBON TETRACHLORIDE] ; Lym observed: 80.8%

----------
- Species: Rattus norvegicus
- Test Protocol: Open TG-GATES - Regimen: Single
- Type: toxicity, organism-based, Sprague-Dawley
- Set-up: regimen Single, gender Male, age 6 weeks
- Applied Conditions: in vivo, po, 100 mg/kg, 24 h, tissue Blood, route gavage, dose level Low
Below, each entry is listed with its recorded Hb.
Your answer is read as g/dL, so omit the unit and give the number.

O=NN1CCOCC1 [N-NITROSOMORPHOLINE] | 13.6

Sample CCC1(c2ccccc2)C(=O)NC(=O)NC1=O [PHENOBARBITAL] ; Hb observed: 13.5

Sample CN(C)C(=N)N=C(N)N [METFORMIN] ; Hb observed: 13

Sample CN(C)CCC=C1c2ccccc2COc2ccccc21 [DOXEPIN] ; Hb observed: 14

----------
- Species on record: Rattus norvegicus
- Test Protocol: Open TG-GATES - Regimen: Single
- Assay type: toxicity, organism-based, Sprague-Dawley
- Design: regimen Single, gender Male, age 6 weeks
- Applied Conditions: in vivo, po, 0 mg/kg, 6 h, tissue Blood, route gavage, dose level Control
Below, each entry is listed with its recorded Ht.
Your answer is read as %, so omit the unit and give the number.

O=NN(CCCl)C(=O)NC1CCCCC1 [LOMUSTINE] | 41.3
OCCOCCN1CCN(C(c2ccccc2)c2ccc(Cl)cc2)CC1 (stereo not given) [HYDROXYZINE] | 40.8
CC(C)N(CCC(C(N)=O)(c1ccccc1)c1ccccn1)C(C)C (stereo not given) [DISOPYRAMIDE] | 39.9
CN(C)CCC=C1c2ccccc2COc2ccccc21 [DOXEPIN] | 41.4

Sample CC[C@H]1[C@@H]2C[C@H]3[C@@H]4N(C)c5ccccc5[C@]45C[C@@H]([C@@H]2[C@H]5O)N3[C@@H]1O [AJMALINE] ; Ht observed: 39.5

----------
- Organism: Rattus norvegicus
- Test Protocol: Open TG-GATES - Regimen: Single
- Type: toxicity, organism-based, Sprague-Dawley
- Set-up: regimen Single, gender Male, age 6 weeks
- Applied Conditions: in vivo, po, 0 mg/kg, 9 h, tissue Plasma, route gavage, dose level Control
Recorded Endpoint: AST (IU/L)
Your answer is read as IU/L, so omit the unit and give the number.

CN(C)CCC=C1c2ccccc2COc2ccccc21 [DOXEPIN] | 71.2

Would you kindly look at the next entry?
Sample CC1=C(CC(=O)O)c2cc(F)ccc2/C1=C\c1ccc([S+](C)[O-])cc1 (stereo unspecified) ; AST observed: 70
